Just for reference, paper PMC7531004 is where these values come from.

Test system: Streptococcus pyogenes SSI-9
Experiment: Antibacterial activity assay of bead-derived peptides (three concentrations)
Type: cell-based
Parameters: key: +++: inhibition by the 640-fold diluted peptide solution; ++: inhibition by the 160-fold diluted solution; +: inhibition by the 40-fold diluted solution; -: no inhibition
Conditions: S. pyogenes, bead-derived peptide solution, three concentrations
Where a SMILES comes first, the peptide text is derived from it. [ ]: non-standard residue; d: D form. The star is where a group is joined. NHCH2CH2OH = OCCN*; For = O=C*
Readout: antibacterial activity

# Molecule, Tested on, Result
measured = [
    ("CC(C)C[C@@H](NC(=O)[C@H](C)NC(=O)CNC(=O)[C@@H](NC=O)C(C)C)C(=O)N[C@@H](C)C(=O)N[C@H](CC(C)C)C(=O)N[C@H](C(=O)N[C@@H](C(=O)N[C@@H](Cc1c[nH]c2ccccc12)C(=O)N[C@H](CC(C)C)C(=O)N[C@@H](Cc1c[nH]c2ccccc12)C(=O)N[C@H](CC(C)C)C(=O)N[C@@H](Cc1c[nH]c2ccccc12)C(=O)N[C@@H](C(=O)N[C@@H](Cc1c[nH]c2ccccc12)C(=O)NCCO)C(C)C)C(C)C)C(C)C [compound 1796] (For-VGA[dL]A[dL]V[dV]W[dL]W[dL]W[dV]W-NHCH2CH2OH)", "Streptococcus pyogenes SSI-9", "-"),
    ("CC(C)C[C@@H](NC(=O)[C@H](C)NC(=O)CNC(=O)[C@@H](NC=O)C(C)C)C(=O)N[C@@H](C)C(=O)N[C@@H](C(=O)N[C@H](C(=O)N[C@@H](C(=O)N[C@@H](Cc1c[nH]c2ccccc12)C(=O)N[C@H](CC(C)C)C(=O)N[C@@H](Cc1c[nH]c2ccccc12)C(=O)N[C@@H](C(=O)N[C@@H](Cc1c[nH]c2ccccc12)C(=O)N[C@@H](C(=O)N[C@@H](Cc1c[nH]c2ccccc12)C(=O)NCCO)[C@H](C)O)C(C)C)C(C)C)C(C)C)C(C)C [compound 7010] (For-VGA[dL]A[dV]V[dV]W[dL]W[dV]W[dT]W-NHCH2CH2OH)", "Streptococcus pyogenes SSI-9", "+"),
    ("CC(C)C[C@@H](NC(=O)[C@H](C)NC(=O)[C@H](NC(=O)[C@H](C)NC(=O)CNC(=O)[C@@H](NC=O)C(C)C)C(C)C)C(=O)N[C@H](C(=O)N[C@@H](C(=O)N[C@@H](Cc1c[nH]c2ccccc12)C(=O)N[C@H](CC(C)C)C(=O)N[C@@H](Cc1c[nH]c2ccccc12)C(=O)N[C@@H](C(=O)N[C@@H](Cc1c[nH]c2ccccc12)C(=O)N[C@@H](C(=O)N[C@@H](Cc1c[nH]c2ccccc12)C(=O)NCCO)C(C)C)C(C)C)[C@H](C)O)C(C)C [compound 4126] (For-VGA[dV]A[dL]V[dT]W[dL]W[dV]W[dV]W-NHCH2CH2OH)", "Streptococcus pyogenes SSI-9", "-"),
    ("CC(C)C[C@@H](NC(=O)[C@H](C)NC(=O)[C@H](NC(=O)[C@H](C)NC(=O)CNC(=O)[C@@H](NC=O)C(C)C)[C@H](C)O)C(=O)N[C@H](C(=O)N[C@H](CC(C)C)C(=O)N[C@@H](Cc1c[nH]c2ccccc12)C(=O)N[C@@H](C(=O)N[C@@H](Cc1c[nH]c2ccccc12)C(=O)N[C@H](CC(C)C)C(=O)N[C@@H](Cc1c[nH]c2ccccc12)C(=O)N[C@H](CC(C)C)C(=O)N[C@@H](Cc1c[nH]c2ccccc12)C(=O)NCCO)C(C)C)C(C)C [compound 4687] (For-VGA[dT]A[dL]V[dL]W[dV]W[dL]W[dL]W-NHCH2CH2OH)", "Streptococcus pyogenes SSI-9", "-"),
]
